- Test protocol: Cytotoxicity against human WI-38 cells incubated for 72 hrs by MTT assay
- Assay type: toxicity, cell-based
Value kind: IC50 at 72 h (nM)
Report the value in nM with no unit label.

Answered examples (2):
O=C(c1ccc([N+](=O)[O-])cc1)[C@H]1[C@H](c2cn(-c3ccccc3)nc2-c2ccccc2)[C@@H]2CC3CCCCC3N2[C@]12C(=O)Nc1ccc(Cl)cc12 (stereo partly drawn): 480
O=C(c1ccc(Br)cc1)[C@H]1[C@H](c2cn(-c3ccccc3)nc2-c2ccccc2)[C@@H]2CC3CCCCC3N2[C@]12C(=O)Nc1ccccc12 (stereo partly drawn): 466

# next molecule below
Qu. Query (molecule): COc1ccc2c(c1)[C@@]1(C(=O)N2)[C@@H](C(=O)c2ccc([N+](=O)[O-])cc2)[C@H](c2cn(-c3ccccc3)nc2-c2ccccc2)[C@@H]2CC3CCCCC3N21 (stereo partly drawn) ; field requested: IC50 at 72 h
Ans. 773

###

The following compounds are listed with their measured IC50 at 72 h values.
- Test protocol: Cytotoxicity against human WI-38 cells incubated for 72 hrs by MTT assay
- Assay type: toxicity, cell-based
Report the value in nM with no unit label.

Answered examples (4):
O=C(c1ccccc1)[C@H]1[C@H](c2cn(-c3ccccc3)nc2-c2ccccc2)[C@@H]2CC3CCCCC3N2[C@]12C(=O)Nc1cc(Cl)ccc12 (stereo partly specified): 509
O=C(c1ccccc1[N+](=O)[O-])[C@H]1[C@H](c2cn(-c3ccccc3)nc2-c2ccccc2)[C@@H]2CC3CCCCC3N2[C@]12C(=O)Nc1ccccc12 (stereo partly specified): 413
O=C(c1ccccc1[N+](=O)[O-])[C@H]1[C@H](c2cn(-c3ccccc3)nc2-c2ccccc2)[C@@H]2CC3CCCCC3N2[C@]12C(=O)Nc1ccc(Cl)cc12 (stereo partly specified): 294
CN1C[C@@H](c2cn(-c3ccccc3)nc2-c2ccccc2)[C@H](C(=O)c2ccccc2)[C@@]12C(=O)Nc1ccccc12: 1300

Qu. Query (compound): O=C(c1ccccc1)[C@H]1[C@H](c2cn(-c3ccccc3)nc2-c2ccccc2)[C@@H]2CC3CCCCC3N2[C@]12C(=O)Nc1ccc(Cl)cc12 (stereo partly specified) ; field requested: IC50 at 72 h
Ans. 467

Qu. Okay, and COc1cccc2c1C(=O)c1c(O)c3c(c(O)c1C2=O)C[C@@](O)(C(=O)CO)C[C@@H]3O[C@H]1C[C@H](N)[C@H](O)[C@H](C)O1 ?
Ans. 129

###

- Test protocol: Cytotoxicity against human WI-38 cells incubated for 72 hrs by MTT assay
- Format: toxicity, cell-based
Value kind: IC50 at 72 h (nM)
Report the value in nM with no unit label.

Answered examples (2):
O=C(c1ccc(Br)cc1)[C@H]1[C@H](c2cn(-c3ccccc3)nc2-c2ccccc2)[C@@H]2CC3CCCCC3N2[C@]12C(=O)Nc1cc(Cl)ccc12 (stereo not given in full): 1040
O=C(c1ccc([N+](=O)[O-])cc1)[C@H]1[C@H](c2cn(-c3ccccc3)nc2-c2ccccc2)[C@@H]2CC3CCCCC3N2[C@]12C(=O)Nc1ccccc12 (stereo not given in full): 712

Qu. Query (compound): CN1C[C@@H](c2cn(-c3ccccc3)nc2-c2ccccc2)[C@H](C(=O)c2ccc([N+](=O)[O-])cc2)[C@@]12C(=O)Nc1ccc(Cl)cc12 ; field requested: IC50 at 72 h
Ans. 480

Qu. Okay, and COc1ccc2c(c1)[C@@]1(C(=O)N2)[C@@H](C(=O)c2ccc([N+](=O)[O-])cc2)[C@H](c2cn(-c3ccccc3)nc2-c2ccccc2)CN1C ?
Ans. 1490

Qu. Okay, and O=C(c1ccccc1)[C@H]1[C@H](c2cn(-c3ccccc3)nc2-c2ccccc2)[C@@H]2CC3CCCCC3N2[C@]12C(=O)Nc1ccccc12 (stereo not given in full) ?
Ans. 825
